# systemTested: T1, HCV NS3 1073 (genotype 6) peptide on HLA-A*02:01 (human)
# T1 peptide: AINGVMWTV
# procedureSummary: cytokine release

{"columns": ["binder", "binding result"],
 "data": [
  ["I8H4 (TCR, V domains shown) Valpha: AQKVTQTQTSISVVEKTTVTMDCVYETRDSSYFLFWYKQTASGEIVFLIRQDSYKKENATVGHYSLNFQKPKSSIGLIITATQIEDSAVYFCAMREITGNTGKLIFGLGTTLQVQP Vbeta: EAAVTQSPRNKVTVTGGNVTLSCRQTNSHNYMYWYRQDTGHGLRLIHYSYGAGNLRIGDVPDGYKATRTTQEDFFLLLELASPSQTSLYFCASSDALGGEDAEQFFGPGTRLTVL", "no recognition"],
  ["I4F8 (TCR, V domains shown) Valpha: AQSVTQPDARVTVSEGASLQLRCKYSYFGTPYLFWYVQYPRQGLQLLLKYYPGDPVVQGVNGFEAEFSKSNSSFHLRKASVHWSDWAVYFCAVSNMGYKLTFGTGTSLLVDP Vbeta: DPKIIQKPKYLVAVTGSEKILICEQYLGHNAMYWYRQSAKKPLEFMFSYSYQKLMDNQTASSRFQPQSSKKNHLDLQITALKPDDSATYFCASSQEMGGALEQYFGPGTRLTVL", "no recognition"]
]}

Entry source: patent US20130011375A1
